biological target: human VPS34 (Homo sapiens (Human), UniProt Q8NEB9); assay: Human VPS34 enzyme assay (Adapta TR-FRET); format: biochemical; conditions: 1 h; inhibition of VPS34 at a 1.11 μM concentration; read-out: Percent Inhibition
Sequence (Q8NEB9 whole entry): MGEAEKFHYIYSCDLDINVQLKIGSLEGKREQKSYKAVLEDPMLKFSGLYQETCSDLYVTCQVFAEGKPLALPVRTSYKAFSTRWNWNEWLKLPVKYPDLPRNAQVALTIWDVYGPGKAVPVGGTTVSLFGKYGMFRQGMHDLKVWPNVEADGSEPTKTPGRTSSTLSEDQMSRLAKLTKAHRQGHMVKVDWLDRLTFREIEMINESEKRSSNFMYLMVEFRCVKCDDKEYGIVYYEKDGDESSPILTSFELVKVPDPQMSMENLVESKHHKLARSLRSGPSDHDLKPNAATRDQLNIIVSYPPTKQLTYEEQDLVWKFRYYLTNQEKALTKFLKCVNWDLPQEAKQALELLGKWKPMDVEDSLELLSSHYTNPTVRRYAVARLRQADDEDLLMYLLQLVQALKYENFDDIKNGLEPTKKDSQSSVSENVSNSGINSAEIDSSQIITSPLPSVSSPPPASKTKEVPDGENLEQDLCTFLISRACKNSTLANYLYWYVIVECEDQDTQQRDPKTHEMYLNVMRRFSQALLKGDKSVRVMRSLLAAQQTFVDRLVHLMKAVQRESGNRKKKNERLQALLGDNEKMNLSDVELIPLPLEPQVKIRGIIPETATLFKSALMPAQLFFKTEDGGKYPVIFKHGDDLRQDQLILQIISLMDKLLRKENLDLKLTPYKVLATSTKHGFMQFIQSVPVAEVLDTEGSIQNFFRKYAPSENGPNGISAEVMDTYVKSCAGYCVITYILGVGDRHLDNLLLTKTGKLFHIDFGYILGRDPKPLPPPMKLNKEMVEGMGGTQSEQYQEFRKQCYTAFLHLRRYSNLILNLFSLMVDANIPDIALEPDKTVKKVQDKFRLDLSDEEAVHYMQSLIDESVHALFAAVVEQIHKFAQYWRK
RESULT TYPE: inhibition at 1.11 µM

Illustrative cases are given below, each with its answer.
{"MOLECULE": "COC(=O)Nc1cc(-c2cncc3c2ccn3S(=O)(=O)C2CC2)ccn1 [Compound I-30]", "TEST SYSTEM": "human VPS34 (Homo sapiens (Human), UniProt Q8NEB9)", "RESULT TYPE": "inhibition at 1.11 µM", "ENDPOINT VALUE": "99%"}
{"MOLECULE": "CC(=O)Nc1cc(-c2cnc(CN)c3c2ccn3S(=O)(=O)C2CC2)ccn1 [Compound I-41]", "TEST SYSTEM": "human VPS34 (Homo sapiens (Human), UniProt Q8NEB9)", "RESULT TYPE": "inhibition at 1.11 µM", "ENDPOINT VALUE": "> 99%"}

Request: State inhibition at 1.11 µM on human VPS34 (Homo sapiens (Human), UniProt Q8NEB9). Entry: CC(=O)Nc1cc(-c2cncc3[nH]ccc23)ccn1 [Compound I-20]
Result: > 99%

Request: Report the value of inhibition at 1.11 µM obtained on human VPS34 (Homo sapiens (Human), UniProt Q8NEB9) for COC(=O)Nc1cc(-c2cnc(C)c3c2ccn3S(C)(=O)=O)ccn1 [Compound I-38] .
Result: 99%

Request: Under human VPS34 (Homo sapiens (Human), UniProt Q8NEB9), report inhibition at 1.11 µM for CC(=O)Nc1cc(-c2cnc(C)c3c2ccn3S(=O)(=O)N(C)C)ccn1 [Compound I-7]
Result: > 99%

Request: Give reported inhibition at 1.11 µM for O=S(=O)(C1CC1)n1ccc2c(-c3ccnc(Nc4ccncn4)c3)cncc21 [Compound I-49] (human VPS34 (Homo sapiens (Human), UniProt Q8NEB9))
Result: 88%

Request: System human VPS34 (Homo sapiens (Human), UniProt Q8NEB9). Read-out inhibition at 1.11 µM. Item O=C(Cc1nnn[nH]1)Nc1cc(-c2cncc3c2ccn3S(=O)(=O)C2CC2)ccn1 [Compound I-27] . Report value.
Result: > 99%

Request: Fill: inhibition at 1.11 µM (human VPS34 (Homo sapiens (Human), UniProt Q8NEB9)) for this molecule CC(=O)Nc1cc(-c2cncc3c2ccn3S(=O)(=O)c2ccccc2)ccn1 [Compound I-39]
Result: > 99%

Request: Fill in: inhibition at 1.11 µM on human VPS34 (Homo sapiens (Human), UniProt Q8NEB9), entry CS(=O)(=O)n1ccc2c(-c3ccnc(Nc4ncco4)c3)cncc21 [Compound I-9]
Result: > 99%
